Recorded self-cleavage, one value per entry.
B1: OR4K15 (parent)
chain: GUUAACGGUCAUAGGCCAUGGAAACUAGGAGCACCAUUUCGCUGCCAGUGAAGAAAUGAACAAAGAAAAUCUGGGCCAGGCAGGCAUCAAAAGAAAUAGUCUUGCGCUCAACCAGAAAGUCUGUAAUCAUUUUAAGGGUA

Variants of: B1
assay_procedure: self-cleavage, relative activity (ratio to wild type); higher = more cleavage; in vitro, sequencing; the parent is a self-cleaving ribozyme
Give your answer as a number; write no unit.

Before answering, review these 6 worked examples.
> print(dat)
      change  measured.number
1  A33G A94U             0.59
2  A51G G83A             1.42
3  A55G A91G             0.98
4  A55G A90U             2.14
5  A13U A91U             1.34
6  A5U U103C             0.83

Per the records, this variant ( U9A A27G ) has self-cleavage equal to 0.47

For reference, reported self-cleavage for A68U U72A stands at 0.34

Item: C71U U124C | self-cleavage: 0.06

So for A13G C71U , the logged self-cleavage turned out to be 0.46

The value of self-cleavage measured for the variant U37C U72A turned out to be 0.51
